src = patent EP4786492A1

Molecular target: human DLL3 protein expressed on CHO-K1 recombinant cells (human DLL3 extracellular segment fused to EpCAM transmembrane and intracellular regions) (human) (UniProt Q9NYJ7)
Sequence (Q9NYJ7 other isoform, or with tags, fused parts or gaps limits assumed): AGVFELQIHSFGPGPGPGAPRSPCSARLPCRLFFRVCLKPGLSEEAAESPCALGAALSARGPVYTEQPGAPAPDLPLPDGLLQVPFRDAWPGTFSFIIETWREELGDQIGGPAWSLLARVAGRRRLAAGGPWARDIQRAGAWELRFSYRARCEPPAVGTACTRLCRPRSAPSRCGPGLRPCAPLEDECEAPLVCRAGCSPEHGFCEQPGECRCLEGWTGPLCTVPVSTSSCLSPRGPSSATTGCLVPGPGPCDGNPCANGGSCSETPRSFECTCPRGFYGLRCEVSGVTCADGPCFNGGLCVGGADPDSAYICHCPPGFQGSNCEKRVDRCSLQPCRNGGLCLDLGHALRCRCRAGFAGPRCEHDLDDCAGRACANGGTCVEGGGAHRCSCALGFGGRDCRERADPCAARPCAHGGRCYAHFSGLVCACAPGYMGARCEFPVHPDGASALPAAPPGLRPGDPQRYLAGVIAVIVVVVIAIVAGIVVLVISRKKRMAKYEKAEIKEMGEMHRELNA
Assay: FACS, CHO-K1 hDLL3 cells, 0.032 nM antibody
PROPERTY MEASURED: MFI

>>> reported("Hab006VL1VH4-hFc (scFv, part only; not given: VL-VH linker and human IgG1 Fc, V domains shown, not shown: another chain or arm of the molecule; a dimerising Fc or GST; small tags and cut ends) VL: DIQMTQSPSSLSASVGDRVTITCRATKSISKYLAWYQQKPGKAPKLLIFSGSTLQSGVPSRFSGSGSGTDFTLTISSLQPEDFATYYCQQHHEYPYTFGGGTKVEIK VH: EVQLVQSGAEVKKPGASVKVSCKASGYTFTSYWMHWVRQAPGQRLEWMGVIDPSDSLANYNQEFKGRVTLTVDTSSSTAYMELSSLRSEDTAVYYCARDSTVVAPMDYWGQGTTVTVSS")
"1050 MFI"
>>> reported("Hab008L3H5-hFc (scFv, part only; not given: scFv linker and human IgG1 Fc, V domains shown, not shown: another chain or arm of the molecule; a dimerising Fc or GST; small tags and cut ends) VL: DIVMTQSPDSLAVSLGERATINCKASQNVGTAVAWYQQKPGQSPKLLIFSASIRYTGVPDRFSGSGSGTDFTLTISSLQAEDVAVYYCQQYSSSPYTFGGGTKVEIK VH: EVQLVQSGAEVKKPGASVKVSCKASGYTFTDYYMNWVRRAPGQRLEWMGIINPYNGGTSYNQKFRGRVTITVDKSASTAYMELSSLRSEDTAVYYCSRYDYDYDVEGAMDYWGQGTTVTVSS")
"235 MFI"
>>> reported("Hab014VL1VH2-hFc (scFv, part only; not given: VL-VH linker and human IgG1 Fc, V domains shown, not shown: another chain or arm of the molecule; a dimerising Fc or GST; small tags and cut ends) VL: DIQMTQSPSSLSASVGDRVTITCKASEDIYNRLAWYQQKPGKVPKLLISGATSLETGVPSRFSGSGSGTDFTLTISSLQPEDVATYYCQQYWSLPWTFGGGTKVEIK VH: EVQLVQSGAEVKKPGASVKVSCKASGYTFTDYYMNWVRQAPGQRLEWMGDINPNHGDTGYNQKFTGRVTLTVDKSASTAYMELSSLRSEDTAVYYCARNFFYYGTTYGWYFDVWGQGTTVTVSS")
"698 MFI"
